Test system: Escherichia coli TOP10;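 further: peptides expressed intracellularly from a pBAD plasmid library in pooled LB shake-flask culture, induced with 0.3% L-arabinose, DNA abundance read by NGS, three biological replicates, DESeq2 with apeglm shrinkage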
Assay: shrunken log2 fold change of peptide-encoding DNA abundance (4.5 h post-induction vs induction); higher = less antimicrobial activity (less host growth inhibition)
Settings: time post-induction: 4.5 h; library: site-saturation at positions 5, 18, 19, 20

ordered.residues: RRIRQRPPRLPRPRPRPSVNPRP
shrunken log2 fold change: -0.642
//
ordered.residues: RRIRDRPPRLPRPRPRPTQAPRP
shrunken log2 fold change: 0.017
//
ordered.residues: RRIRERPPRLPRPRPRPEWEPRP
shrunken log2 fold change: -0.0115
//
ordered.residues: RRIRIRPPRLPRPRPRPRWPPRP
shrunken log2 fold change: 0.379
//
ordered.residues: RRIRNRPPRLPRPRPRPQMKPRP
shrunken log2 fold change: -0.281
//
ordered.residues: RRIRIRPPRLPRPRPRPINTPRP
shrunken log2 fold change: -0.954
//
ordered.residues: RRIRDRPPRLPRPRPRPTQLPRP
shrunken log2 fold change: -0.0815
//
ordered.residues: RRIRARPPRLPRPRPRPWYCPRP
shrunken log2 fold change: -0.306

# credit: the supplement of paper PMC9112550
